This listing pairs compounds with measured Ki.
target: GST-tagged-Wee1 kinase (Homo sapiens, UniProt P30291); assay: Wee1 time-resolved fluorescence equilibrium binding assay (displacement of Oregon Green-labeled ATP-competitive kinase probe)
Sequence (P30291 whole entry): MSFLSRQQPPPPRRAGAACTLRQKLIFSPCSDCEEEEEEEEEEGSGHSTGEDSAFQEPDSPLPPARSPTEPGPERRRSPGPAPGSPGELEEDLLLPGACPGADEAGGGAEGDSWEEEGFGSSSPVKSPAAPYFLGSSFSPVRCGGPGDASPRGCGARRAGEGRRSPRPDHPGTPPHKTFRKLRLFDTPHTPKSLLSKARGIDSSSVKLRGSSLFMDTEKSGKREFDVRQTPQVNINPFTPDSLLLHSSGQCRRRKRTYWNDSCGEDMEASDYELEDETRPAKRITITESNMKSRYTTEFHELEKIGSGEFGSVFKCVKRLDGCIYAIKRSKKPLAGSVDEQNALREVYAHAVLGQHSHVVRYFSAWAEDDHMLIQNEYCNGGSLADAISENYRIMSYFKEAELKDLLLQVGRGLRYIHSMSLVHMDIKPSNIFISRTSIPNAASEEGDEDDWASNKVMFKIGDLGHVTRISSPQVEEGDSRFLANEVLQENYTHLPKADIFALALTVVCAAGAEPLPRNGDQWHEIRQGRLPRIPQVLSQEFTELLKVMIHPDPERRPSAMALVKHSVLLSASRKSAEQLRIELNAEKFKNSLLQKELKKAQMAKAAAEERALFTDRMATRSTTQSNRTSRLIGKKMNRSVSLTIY
metric: Ki

[[record]]
compound = "Cc1nn(-c2c(Cl)cccc2Cl)c(=O)c2cnc(Nc3ccc(C4CCNCC4)cc3)nc12 [Example 458]"
metric = "Ki"
endpoint_result = "0.23 nM"

[[record]]
compound = "CN1CCN(c2ccc(Nc3ncc4c(=O)n(C)nc(-c5ccccc5)c4n3)cc2)CC1 [Example 3]"
metric = "Ki"
endpoint_result = "180 nM"

[[record]]
compound = "Cc1nn(-c2c(Cl)cccc2Cl)c(=O)c2cnc(Nc3ccc4c(c3)CNCC43CC3)nc12 [Example 300]"
metric = "Ki"
endpoint_result = "0.12 nM"

[[record]]
compound = "Cc1nn(-c2c(Cl)cccc2Cl)c(=O)c2cnc(Nc3ccc4c(c3)CN(C)C4)nc12 [Example 491]"
metric = "Ki"
endpoint_result = "0.26 nM"

[[record]]
compound = "CS(=O)(=O)N1Cc2cc(Nc3ncc4c(=O)n(-c5c(Cl)cccc5Cl)nc(-c5ccccn5)c4n3)ccc2C2(CC2)C1 [Example 377]"
metric = "Ki"
endpoint_result = "1.3 nM"

[[record]]
compound = "CN1CCN(c2ccc(Nc3ncc4c(=O)n(-c5c(Cl)cccc5Cl)nc(-c5ccn(CCN)n5)c4n3)cc2)CC1 [Example 235]"
metric = "Ki"
endpoint_result = "0.1 nM"

[[record]]
compound = "CN1CCCC(n2nc(-c3ccccn3)c3nc(Nc4ccc(N5CCNCC5)cc4)ncc3c2=O)C1 (stereo not drawn) [Example 334]"
metric = "Ki"
endpoint_result = "640 nM"

[[record]]
compound = "Cc1cc(Nc2ncc3c(=O)n(-c4ccccc4C)nc(-c4cccs4)c3n2)ccc1N1CCCN(C(C)C)CC1 [Example 120]"
metric = "Ki"
endpoint_result = "1 nM"

[[record]]
compound = "Cc1nn(-c2ncccc2Cl)c(=O)c2cnc(Nc3ccc4c(c3)CNCC4)nc12 [Example 400]"
metric = "Ki"
endpoint_result = "6.7 nM"

[[record]]
compound = "CN(C)CCn1ccc(-c2nn(-c3c(Cl)cccc3Cl)c(=O)c3cnc(Nc4ccc(N5CCN(C)CC5)cc4)nc23)n1 [Example 240]"
metric = "Ki"
endpoint_result = "0.5 nM"

[[record]]
compound = "CN1CCN(c2ccc(Nc3ncc4c(=O)n(-c5c(Cl)cccc5Cl)nc(-c5cccc(N6CCCCC6=O)c5)c4n3)cc2)CC1 [Example 93]"
metric = "Ki"
endpoint_result = "0.1 nM"

[[record]]
compound = "CN1CCN(c2ccc(Nc3ncc4c(=O)n(-c5c(Cl)cccc5Cl)nc(-c5cc[nH]n5)c4n3)cc2)CC1 [Example 231]"
metric = "Ki"
endpoint_result = "0.1 nM"

[[record]]
compound = "Cc1nn(-c2c(Cl)cccc2Cl)c(=O)c2cnc(Nc3cccc(N4CCN(CCCN(C)C)CC4)c3)nc12 [Example 515]"
metric = "Ki"
endpoint_result = "0.19 nM"

[[record]]
compound = "Cc1nn(-c2ncccc2Cl)c(=O)c2cnc(Nc3ccc(N4CCNCC4)cc3)nc12 [Example 399]"
metric = "Ki"
endpoint_result = "18 nM"

[[record]]
compound = "CN1Cc2cc(Nc3ncc4c(=O)n(-c5ccncc5)nc(-c5ccccn5)c4n3)ccc2C(C)(C)C1 [Example 239]"
metric = "Ki"
endpoint_result = "25 nM"


This collection of values is drawn from patent US8796289B2.
